tested on: PC-3 prostate; assay: NCI-60 one-dose screen, 48 h; conditions: 10 µM unless noted
Compounds without any hit were thinned out: in the full panel of roughly 83,000, 20% have a hit. Calls of active or inactive are those of the source. The calls were made as follows: active = growth percent below 10; inactive = the rest.
Outcomes: TRUE = active, FALSE = inactive

MOLECULE	LABEL VALUE
COc1ccc(/C(C)=C(\c2ccc(Cl)cc2)c2ccc(OCCCN(C)C)cc2)cc1	FALSE
C#CCOc1cccc(-c2ncnc3cc(NC(=O)CCl)ccc23)c1	TRUE
Cc1cc(=O)oc2cc(Oc3nc(-c4ccccc4)cn4c(-c5ccccc5)cnc34)ccc12	FALSE
C#CCOc1ccc(C2=NN(C)C3N=C(Cl)c4ncn(C)c4N23)cc1OCC#C (stereo unspecified)	FALSE
O=C(O)COc1ccc(F)cc1	FALSE
NCCNc1ccc([N+](=O)[O-])cc1	FALSE
CN(C)CCOc1nc2c3cc([N+](=O)[O-])ccc3nn2c2ccccc12	FALSE
COc1cccc(CNc2nnc(C)c(C)n2)c1O	FALSE
COC(=O)c1cc(-c2ccc(OC)c(OC)c2)[nH]c1N/N=C/c1c(Cl)cccc1Cl	FALSE
O=CN1N=C(c2cccc(Nc3ccncc3)c2)CC1c1ccc2c(c1)OCO2 (stereo unspecified)	FALSE
CN1CCN(Cc2ccc(NC(=O)c3cncc(C#Cc4cnc(N)c5ccc(C#N)cc45)c3)cc2C(F)(F)F)CC1	FALSE
COc1cccc(/C=C2\CCc3ccccc3C2=O)c1	FALSE
CC(=O)[C@H]1CC[C@]2(C)[C@@H]1CC[C@@H]1[C@@]3(C)C/C(=C/c4cccnc4)C(=O)C(C)(C)[C@@H]3CC[C@]12C	FALSE
CCOC(=O)/C(=C/c1ccc([N+](=O)[O-])cc1)C(=O)c1ccccc1	TRUE
Clc1ccc2c(NCCCn3cnc4c(N5CCCC5)nc(Cl)nc43)ccnc2c1	FALSE
CN(C)CC1C(=O)O[C@H]2[C@H]1CC/C(COC(=O)NCc1ccc(Cn3c(=O)sn(CCCI)c3=O)cc1)=C\CC[C@@]1(C)O[C@@H]21 (stereo partly specified)	FALSE

---

tested on: HCC-2998 colon; experiment: NCI-60 one-dose screen, 48 h; conditions: 10 µM unless noted
Compounds without any hit were thinned out: in the full panel of roughly 83,000, 20% have a hit. Calls of active or inactive are those of the source. Rule for the calls: active = growth percent below 10; inactive = the rest.
Outcomes: YES = active, NO = inactive

COMPOUND	LABEL VALUE
COc1ccc(-c2cc(-c3ccc(N(C)C)cc3)nc(NC(=O)c3cccnc3)n2)cc1	NO
N#C/C(=C/C=C/c1ccccc1)S(=O)c1ccccc1 (stereo not drawn)	YES
CN(C)c1ccc(Cc2cc(-c3ccccc3)nn(C/C(=N/O)c3ccccc3)c2=O)cc1	NO
O=C(Nc1ncc(Cc2cc(C(F)(F)F)ccc2Cl)s1)C(=S)N1CCOCC1	NO
Cc1c(-c2cnc3ccc(Cl)cc3c2C(=O)O)nnn1-c1ccc(Cl)cc1	NO
FC(F)(F)c1cccc(-c2nnn(Cc3cc(-c4cccc(Cl)c4)no3)n2)c1	NO
CCN1C(=O)N(CC)C2C1NN=c1s/c(=C\c3ccc([N+](=O)[O-])cc3)c(=O)n12 (stereo not drawn)	NO
N/C(=N\c1nc2ccccc2s1)NC(=O)Nc1ccccc1	NO
C=CN(C(=O)N1CCN(c2cc3c(cc2F)c(=O)c(C(=O)O)cn3C2CC2)CC1)c1nc(-c2ccc(C)cc2)cs1	NO
O=c1ccc2c(ccc3ncccc32)o1	NO
CN1CCN(Cc2ccc(NC(=O)c3cncc(C#Cc4c(N)ncc5cc(F)ccc45)c3)cc2C(F)(F)F)CC1	NO
Nc1ccc(N)c2c1C(=O)c1cccc([N+](=O)[O-])c1C2=O	YES
CCN1C(=O)N(CC)C2C1NN=c1s/c(=C3\C(=O)N(C)c4ccccc43)c(=O)n12 (stereo not drawn)	NO
Nc1ncc(-c2ccc3ncnc(N4CCc5cc(F)c(Cl)cc54)c3c2)cn1	NO
O=C(Cn1cc(CSc2nc3ccccc3o2)nn1)Nc1ccc([N+](=O)[O-])cc1	NO
Clc1ccc2c(NCCCn3cnc4c(N5CCCC5)nc(Cl)nc43)ccnc2c1	NO
CNC(=O)c1cc(Oc2ccc3nc(NC(=O)NC(C)C)sc3c2)ccn1	NO
CCOC(=O)C1=CCC(n2cc(F)c(=O)[nH]c2=O)O1 (stereo not drawn)	NO
COc1ccc(-c2nc3cc(C(=O)NC4CCCCC4)ccc3n2C2CCCCC2)cc1	NO
CSc1nc(CC(C)C)c(C#N)c(=O)n1C	NO
CC(=O)OCCOc1cc(Cl)c(Cl)cc1Cl	NO
Cn1cc(-c2csc(-c3cn(CCO)c4ccc(F)cc34)n2)c2cccnc21	NO
COC(=O)c1nc(-c2ccccc2)oc1S(=O)(=O)NCC(c1ccc(Cl)cc1)N1CCCCC1 (stereo not drawn)	NO
CCOC(=O)C#Cc1c(CC(=O)OCC)nnn1[C@H]1O[C@@H](CO)[C@@H]2OC(C)(C)O[C@@H]21	NO
O=S(=O)(Nc1ccc(Br)cc1)c1ccc(-c2cnc(C3CC3)o2)cc1	NO
CC(=O)CC(=O)c1ccccc1.[Cu+2]	NO
CCNCCNc1c(C)c(-c2ccc(C(F)(F)F)cc2)c(C#N)c2nc3ccccc3n12	NO
Cc1nc2ccccc2c(/C=C/c2ccc(Cl)cc2)c1C(=O)/C=C/c1ccccc1	YES

These data points were gathered from PubChem BioAssay (NCI).
